Catalogue of Weight of peroxide decomposition catalyst residue which remained undissolved in DMF values
- assay: Solubility test of catalyst in DMF
- Type: physicochemical
- condition.parameters: about 20 mg catalyst, DMF 5.00 ml in total, residue on filter paper dried and weighed
value.type: Weight of peroxide decomposition catalyst residue which remained undissolved in DMF (mg)

compound	reading
[Fe+2].c1ccc2c(c1)-c1nc-2nc2[n-]c(nc3nc(nc4[n-]c(n1)c1ccccc41)-c1ccccc1-3)c1ccccc21 [Iron phthalocyanine, iron phthalocyanine]	17.9
[Co+2].c1ccc2c(c1)-c1nc-2nc2[n-]c(nc3nc(nc4[n-]c(n1)c1ccccc41)-c1ccccc1-3)c1ccccc21 [Cobalt phthalocyanine, cobalt phthalocyanine]	17.5
[Cu+2].c1ccc2c(c1)-c1nc-2nc2[n-]c(nc3nc(nc4[n-]c(n1)c1ccccc41)-c1ccccc1-3)c1ccccc21 [Copper phthalocyanine, copper phthalocyanine]	17.3
O.O.[Na+].[Na+].[O]=[W](=[O])([O-])[O-] [Sodium tungstate dihydrate]	16.5
CC(C)(C)c1ccc2c(c1)C1=Nc3c4cc(C(C)(C)C)ccc4c4[n]3[Fe][n]3c(c5ccc(C(C)(C)C)cc5c3=NC3=NC(=N4)c4cc(C(C)(C)C)ccc43)=NC2=N1 [Fe-pcy (^tBu)]	0.03

---

- assay: Solubility test of catalyst in DMF
- Type: physicochemical
- condition.parameters: catalyst 20.0±0.1 mg in 5.0 ml DMF, equation 3
value.type: Solubility (%)

> print(dat)
                                   compound  value.type  reading
1  O.O.[Na+].[Na+].[O]=[W](=[O])([O-])[O-] [Sodium tungstate dihydrate]  Solubility     17.8
2  [Fe+2].c1ccc2c(c1)-c1nc-2nc2[n-]c(nc3nc(nc4[n-]c(n1)c1ccccc41)-c1ccccc1-3)c1ccccc21  Solubility     11.0
3  CC(C)(C)c1ccc2c(c1)C1=Nc3c4cc(C(C)(C)C)ccc4c4[n]3[Fe][n]3c(c5ccc(C(C)(C)C)cc5c3=NC3=NC(=N4)c4cc(C(C)(C)C)ccc43)=NC2=N1  Solubility     99.8
4  [Cu+2].c1ccc2c(c1)-c1nc-2nc2[n-]c(nc3nc(nc4[n-]c(n1)c1ccccc41)-c1ccccc1-3)c1ccccc21  Solubility     13.1
5  [Co+2].c1ccc2c(c1)-c1nc-2nc2[n-]c(nc3nc(nc4[n-]c(n1)c1ccccc41)-c1ccccc1-3)c1ccccc21  Solubility     12.9
